The reader will find pIC50 measurements below, all made with Lysophosphatidic acid receptor 2 (Homo sapiens, UniProt Q9HBW0).
Sequence (Q9HBW0 whole entry): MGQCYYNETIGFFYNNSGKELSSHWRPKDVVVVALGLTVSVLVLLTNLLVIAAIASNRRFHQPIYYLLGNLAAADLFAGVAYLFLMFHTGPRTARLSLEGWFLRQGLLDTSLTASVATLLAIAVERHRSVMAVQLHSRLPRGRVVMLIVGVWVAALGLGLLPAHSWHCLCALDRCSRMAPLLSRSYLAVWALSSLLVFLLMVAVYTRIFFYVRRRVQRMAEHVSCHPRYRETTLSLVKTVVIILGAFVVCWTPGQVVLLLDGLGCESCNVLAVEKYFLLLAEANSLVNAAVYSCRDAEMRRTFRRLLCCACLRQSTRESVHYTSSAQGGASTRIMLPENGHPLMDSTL
// returns pIC50 (minus log10 of molar concentration), number only

[Q] Kindly state the measured pIC50 obtained for COc1cc(C(=O)N(CCCc2ccccc2)Cc2ccc(Oc3ccc(Cl)cc3C(=O)O)cc2)cc(OC)c1C with Lysophosphatidic acid receptor 2 (Homo sapiens, UniProt Q9HBW0).
[A] 6.10

[Q] Query for Lysophosphatidic acid receptor 2 (Homo sapiens, UniProt Q9HBW0): what pIC50 does the record show for COc1cc(C(=O)N(CCCc2ccccc2)Cc2ccc(CC(=O)O)cc2)cc(OC)c1C ?
[A] 5.07

----------
assay: Half life in human liver microsomes at 0.5 mg/ml; assay type: ADME
measurement-type: half-life (min)
Give a bare numeral; the unit min is implied.

[Q] What value of measured half-life is listed for COc1cc(C(=O)N(CCCc2ccccc2)Cc2ccc(CC(=O)O)cc2)cc(OC)c1C ?
[A] 28

[Q] Value lookup for half-life; key = COc1cc(C(=O)N(CCCc2ccccc2)Cc2ccc(OCC(=O)O)cc2)cc(OC)c1C
[A] 22
